TARGET DESC: hAT1R (Homo sapiens, UniProt P30556)
Sequence (P30556 whole entry): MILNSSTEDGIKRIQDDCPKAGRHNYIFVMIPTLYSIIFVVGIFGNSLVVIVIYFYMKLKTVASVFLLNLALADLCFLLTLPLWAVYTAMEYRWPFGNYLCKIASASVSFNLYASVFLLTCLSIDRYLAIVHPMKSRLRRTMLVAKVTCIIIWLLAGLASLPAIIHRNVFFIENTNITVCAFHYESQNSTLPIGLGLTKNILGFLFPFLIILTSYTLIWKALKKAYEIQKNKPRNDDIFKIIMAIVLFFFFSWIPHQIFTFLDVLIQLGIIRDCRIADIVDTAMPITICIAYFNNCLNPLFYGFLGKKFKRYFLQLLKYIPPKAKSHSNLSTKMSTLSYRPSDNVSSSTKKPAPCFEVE
MEASUREMENT NOTES: cell-based
CONDITION: agonist mode
Items are presented alongside their recorded BRET P63 Ymax.
Give the quantity in %, number only.

The examples below pair each entry with its known result.
> print(dat)
                                   compound                           target.desc  endpoint.label  endpoint.value
1  CCc1nc2c(C)cc(C)nc2n1Cc1ccc(-c2cc(-c3cccc(C)c3)ccc2-c2nn[nH]n2)cc1  hAT1R (Homo sapiens, UniProt P30556)   BRET P63 Ymax            14.0
2  CCc1nc2c(C)cc(C)nc2n1Cc1ccc(-c2cc(Oc3cc(N)ccn3)ccc2-c2nn[nH]n2)cc1  hAT1R (Homo sapiens, UniProt P30556)   BRET P63 Ymax             6.6
3  CCCC1=NC2(CCOC2)C(=O)N1Cc1ccc(-c2cc(-c3ccccc3O)ccc2-c2nnn[nH]2)cc1 (single isomer, unassigned) [Example 160]  hAT1R (Homo sapiens, UniProt P30556)   BRET P63 Ymax            18.6
4  CCCC1=NC2(CCOC2)C(=O)N1Cc1ccc(-c2cc(-c3cccc(C)c3)ccc2-c2nnn[nH]2)cc1 (single isomer, unassigned)  hAT1R (Homo sapiens, UniProt P30556)   BRET P63 Ymax            11.5

I have this compound here, CCc1nc2c(C)cc(C)nc2n1Cc1ccc(-c2cc(-c3cn(CCF)nn3)ccc2-c2nnn[nH]2)cc1 , and I need its recorded BRET P63 Ymax. 44.3

I have this compound here, CC1=NC2(CCOC2)C(=O)N1Cc1ccc(-c2cc(-c3ccccc3)ccc2-c2nn[nH]n2)cc1 (single isomer, unassigned) , and I need its recorded BRET P63 Ymax. 10.3

###

TARGET DESC: hAT1R (Homo sapiens)
MEASUREMENT NOTES: cell-based
CONDITION: section of the 42nd table ending at r951, example numbering restarts after the DiscoveRx section; read-out: β-arrestin2 EC50
ENDPOINT LABEL: EC50
Enter the number, and then the unit.

> print(dat)
                                   molecule  endpoint.label  endpoint.value
1  CCOc1nc2cccc(C(=O)O)c2n1Cc1ccc(-c2cc(-c3cc(C)ccn3)ccc2-c2nn[nH]n2)cc1            EC50          6.5 nM
2  CCc1nc2c(C)cc(C)nc2n1Cc1ccc(-c2cc(C(=O)c3ccccc3)ccc2-c2nnn[nH]2)cc1            EC50         28.4 nM
3  CCc1nc2c(C)cc(C)nc2n1Cc1ccc(-c2cc(-c3cc(C)cc(C)c3)ccc2C(=O)O)cc1            EC50         15.7 nM
4  CCc1nc2c(C)cc(C)nc2n1Cc1ccc(-c2cc(-n3cc4ccccc4n3)ccc2-c2nnn[nH]2)cc1            EC50          6.6 nM
5  CCc1nc2c(C)cc(C)nc2n1Cc1ccc(-c2cc(-c3cn(CC(F)F)nn3)ccc2-c2nnn[nH]2)cc1            EC50         28.2 nM

I have this molecule here, CCCC1=NC2(CCOC2)C(=O)N1Cc1ccc(-c2cc(-c3ccccc3O)ccc2-c2nnn[nH]2)cc1 (single isomer, unassigned) [Example 160] , and I need its recorded EC50. 98.5 nM

I have this molecule here, Cc1ccnc(-c2ccc(-c3nn[nH]n3)c(-c3ccc(Cn4nc(C)nc4C)cc3)c2)c1 , and I need its recorded EC50. 385 nM
